- Target or system: HLA-A*68:02
- Assay procedure: IEDB peptide-MHC binding, purified MHC/competitive/fluorescence; filed as Kd, often an IC50 or EC50 that approximates it; bounds were set here for any values at or beyond the usual limits of such assays
- Measurement context: source organism: Bacillus anthracis str. Ames
pKd: −log10 of the molar value.
Measurement label: pKd

Tell me the measured pKd of VILYFMYRK , please.
≤ 4.70

---

- Target or system: HLA-B*40:01
- Assay procedure: IEDB peptide-MHC binding, purified MHC/direct/fluorescence; filed as Kd, often an IC50 or EC50 that approximates it; bounds were set here for any values at or beyond the usual limits of such assays
- Measurement context: source organism: Pseudomonas aeruginosa UCBPP-PA14
Measurement label: Kd

Item AYGSRFHEW has what recorded Kd?
≥ 20 µM
